Listed here are compounds together with their documented pKb.
- Assay text: Antagonist activity against muscarinic M3 receptor in guinea pig ileum assessed as effect on ileum tension
- Format: functional, Cavia porcellus
Endpoint label: pKb

{"Compound": "C[N+]1(C)CCC[C@H]1[C@H]1C[S+]([O-])[C@@](c2ccccc2)(C2CCCCC2)O1.[I-] (stereo in doubt; (+)-13)", "Obs value": 8.67}
{"Compound": "CN1CCC[C@H]1[C@H]1C[S+]([O-])C(c2ccccc2)(c2ccccc2)O1 (stereo in doubt; (-)-5)", "Obs value": 6.99}
{"Compound": "CN1CCC[C@@H]1[C@@H]1C[S+]([O-])C(c2ccccc2)(c2ccccc2)O1 (stereo in doubt; (+)-5)", "Obs value": 7.17}
{"Compound": "CN1CCC[C@H]1[C@H]1C[S+]([O-])[C@@](c2ccccc2)(C2CCCCC2)O1 (stereo in doubt; (+)-7)", "Obs value": 7.96}
